Entries and their TGI values follow.
test system: OVCAR-3 ovarian; assay: NCI tumour cell line growth inhibition, 48 h

See these solved cases before continuing.
* COC1=C(N2CC2)C(=O)c2nc3n(c2C1=O)CCC3 | 10.7 µM
* COc1ccc2c(CN3CCC[C@H]3C(=O)O)cc3cc4c(cc3c2c1)OCO4 | 63 µM
* O=c1ccnc2c1ccc1[nH]cccc12 | > 100 µM
* NC1CCCCC1N.O=S(=O)([O-])CCCN1CCOCC1.O=S(=O)([O-])CCCN1CCOCC1.[Pt+4] | > 100 µM
* CC1=CC(=O)C(=O)C2=C1OC1(C2)C(C)CCC2C3(C)CCC(O)C(C)(C)C3CCC21C (stereo not given) | 34.6 µM
* C[C@H]1C[C@H](C)c2ccccc2N(C)C1=Nc1ccccc1 | 80 µM
* Nc1nc(=S)[nH]c(C(=O)Nc2ccc(Cl)c(Cl)c2)c1-c1ccc(Cl)cc1 | > 100 µM
* COC(=O)C1[C@@H](C(=O)OC)C12C=Cc1ccccc1C=C2 (stereo not given in full) | > 100 µM

q: Return value of TGI for input Cc1ccc(C(=O)C(Cl)C(Cl)c2ccc(C)cc2)cc1 (stereo not given) , no commentary.
a: 11.2 µM

q: Return value of TGI for input "Cc1cc(N2CCN(c3ccnc4cc(Cl)ccc34)CC2)nc(NC2CCCCC2)n1" , no commentary.
a: 3.9 µM

----------
system: UACC-257 melanoma; assay: NCI tumour cell line growth inhibition, 48 h
Entries and their GI50 values follow.

* COc1cc2c(Oc3ccc4[nH]c(C)cc4c3F)ccnc2cc1OCC1(N)CC1 | 1670 nM
* C[C@@H]1N=C(c2ccc(Br)cc2)Nc2nc3ccccn3c2C1=O | 35200 nM
* Cc1cc(N2CCN(c3ccnc4cc(Cl)ccc34)CC2)nc(NC2CCCCC2)n1 | 1860 nM
* CCCCCCCCCCC(O)C1CCC(C(O)CCC(O)C2CCC(CCCCCCC[C@H](O)CC3=C[C@@H](C)OC3=O)O2)O1 (some centres undefined) | 461 nM
* O=C([CH-]C(=O)c1ccccc1)c1ccccc1.O=C([CH-]C(=O)c1ccccc1)c1ccccc1.O=C([CH-]C(=O)c1ccccc1)c1ccccc1.[OH3+].[Y+3] | 12000 nM
* CCC[CH2][Sn]([CH2]CCC)([O]C(=O)C(N)CSC)[O]C(=O)C(N)CSC (centres undefined) | 11800 nM
* C=CCN1C=CC(=O)[C@H](O[Si](C)(C)C(C)(C)C)[C@@H]1/C=C/c1ccccc1 | 17900 nM
* O=C(N/N=C/c1ccccc1Cl)c1ccccc1Nc1ccnc(C(F)(F)F)c1 | 2610 nM

Please turn your attention to the following entry.
q: Return value of GI50 for input O=C([O][Hg][CH2]C1COCC([CH2][Hg][O]C(=O)c2ccccc2)O1)c1ccccc1 (centres undefined) , no commentary.
a: 1450 nM

----------
tested on: NCI-H522 lung; assay: NCI tumour cell line growth inhibition, 48 h
property.measured: TGI

See these solved cases before continuing.
• CC(=O)N/C(=C\c1cccc([N+](=O)[O-])c1)c1nc2c3c(ccc2[nH]1)C(=O)c1ccccc1C3=O = 99.8 µM
• COc1cc(C(c2cc3c(cc2O)OCO3)N2CCCCC2)cc(OC)c1OC (stereo not given) = 26.7 µM
• O=C1C(=O)c2ccccc2C(O)=C1CN(CCCl)CCCl = > 100 µM
• NC(=O)c1ccc2c(-c3ccnc(NCCCO)n3)c(-c3ccc(F)cc3)nn2c1 = > 25 µM
• C[C@]12CC[C@H](OCCC#N)CC1=CC[C@@H]1C2CC[C@]2(C)/C(=N/OCCC#N)CCC12 (stereo not given in full) = > 100 µM
• COc1ccc(-c2c(CN3CCOCC3)sc3nc4ccccc4n23)cc1 = > 20.2 µM
• O=C(Nc1ccc(F)cc1F)c1cc(Br)ccc1O = 39.9 µM
• CCCCCCCCCCCCC(O)C1CCC(C(O)CCCCCCC(O)CCCCCCCC2=CC(C)OC2=O)O1 (stereo not given) = 56.9 µM
• O=C(O)c1ccc(Nc2nc3ccccc3nc2-c2cccs2)cc1 = > 100 µM

Please turn your attention to the following entry.
q: Return value of TGI for input "Cc1nn(-c2ccccc2)c2[nH]c(=S)cnc12" , no commentary.
a: > 100 µM

----------
test system: EKVX NSCLC; assay: NCI tumour cell line growth inhibition, 48 h
property.measured: TGI

See these solved cases before continuing.
- CN(C)c1ccc(/C=c2/c3ccccc3n3c2cc(C24CC5CC(CC(C5)C2)C4)[n+]3C)cc1: 1.58 µM
- N#CC(Nc1ccccc1)c1ccc(C(C#N)Nc2ccccc2)cc1 (stereo not given): > 100 µM
- NC(=S)N/N=C(\C(=O)Nc1cccc([N+](=O)[O-])c1)c1nc2ccc([N+](=O)[O-])cc2[nH]c1=O: > 100 µM
- O=C(CC12CC3CC(CC(C3)C1)C2)NCCOCCOCCOCCNC(=O)c1cc2c(o1)C(=O)c1ccccc1C2=O: 5.29 µM
- Cc1ccc(NC(=O)CCC/C(CC(=O)c2ccc(Br)cc2)=N/NC(=O)CC#N)cc1: > 100 µM
- O=C(O)c1ccc2c(c1)CC1(C2)Cc2ccccc2C1=O (stereo not given): > 100 µM
- Cn1nc(-c2ccccc2)nc1[N+](=O)[O-]: > 10 µM
- CN(C)CCCCN1c2ccccc2Sc2cc(N=[N+]=[N-])ccc21: 15.5 µM
- [O-][n+]1onc(-c2ccccc2)c1CN1CCOCC1: > 100 µM

Please turn your attention to the following entry.
q: Return value of TGI for input "O=C(Nc1cc[c]([Sb](=[O])([OH])[OH])cc1)c1ccccc1" , no commentary.
a: > 100 µM

----------
test system: NCI-H226 lung; test: NCI tumour cell line growth inhibition, 48 h; in the data active = GI50 below about 0.43 µM; inactive = the rest
// allowed return values: t (active), f (inactive)

• COc1ccc(CNc2c3ccccc3nc3ccc(OC)cc23)cc1 = f

q: Assay outcome for CCC[CH2][Sn]([CH2]CCC)([O]C(=O)C(N)CSC)[O]C(=O)C(N)CSC (stereo not drawn) : what was it?
a: f

q: Assay outcome for "COc1cc2c(Oc3ccc4[nH]c(C)cc4c3F)ccnc2cc1OCC1(N)CC1" : what was it?
a: f

q: Assay outcome for "O=C(Nc1ccc(F)cc1F)c1cc(Br)ccc1O" : what was it?
a: f

q: Assay outcome for "O=S(=O)(c1ccc(N=C2NN=C(c3c[nH]c4ccccc34)CS2)cc1)N1CCOCC1" : what was it?
a: f

q: Assay outcome for "COc1c(Cl)c2c(c(OC)c1OC)-c1ccc(SC)c(=O)cc1[C@@H](NC(=O)OCC(F)(F)F)CC2" : what was it?
a: t

q: Assay outcome for C=C1C(=O)[C@@]23CC1C(O)[C@@H](OC(C)=O)[C@@H]2C1(C)C(OC(C)=O)C[C@@H](OC(C)=O)C(C)(C)[C@@H]1C[C@H]3OC(C)=O (stereo partly drawn) : what was it?
a: f

q: Assay outcome for "O=c1[nH]ccc2nc(N3CCC(O)CC3)nc(Nc3cccc(C(F)(F)F)c3)c12" : what was it?
a: f

----------
tested on: HOP-92 NSCLC; assay: NCI tumour cell line growth inhibition, 48 h
property.measured: TGI (µM)
All answers are understood in µM, so give the number only.

See these solved cases before continuing.
• CC/C=C/C(=O)CC(O)(C(F)(F)F)C(F)(F)F = 86.3
• CN(C)CCCCN1c2ccccc2Sc2cc(N=[N+]=[N-])ccc21 = 10.5

Please turn your attention to the following entry.
q: Return value of TGI for input "O=C(CC12CC3CC(CC(C3)C1)C2)NCCOCCOCCOCCNC(=O)c1cc2c(o1)C(=O)c1ccccc1C2=O" , no commentary.
a: 7.3

----------
system: HCT-15 colon; experiment: NCI tumour cell line growth inhibition, 48 h
Where a SMILES comes first, the peptide text is derived from it. [ ]: non-standard residue; d: D form. The star is where a group is joined. ξ: configuration not given here. NMeN = CN[C@@H](CC(N)=O)C(=O)O; NMeV = CN[C@H](C(=O)O)C(C)C; ξNMeV = CNC(C(=O)O)C(C)C; Boc = CC(C)(C)OC(=O)*; ξNMeA = CNC(C)C(=O)O
Entries and their TGI values follow.

See these solved cases before continuing.
• COc1ccc(CNc2c3ccccc3nc3ccc(OC)cc23)cc1 = 6.18 µM
• Cc1cccc(Cl)c1NC(=O)/C=C/c1ccccc1 = > 100 µM
• CN(C)CC/C(=N\Nc1ccccc1)c1ccccc1 = 27.6 µM

q: Provide HCT-15 colon TGI reading for "Cc1cccc(C)c1NC(=O)CCc1nnc2s/c(=C\c3ccc(Cl)cc3)c(=O)n12" .
a: 36.2 µM

q: Provide HCT-15 colon TGI reading for "O=S(=O)(c1ccc(N=C2NN=C(c3c[nH]c4ccccc34)CS2)cc1)N1CCOCC1" .
a: > 100 µM

q: Provide HCT-15 colon TGI reading for "COC(=O)C12CC3CC(C1)CC(C(=O)OC)(C3)C2" .
a: > 100 µM

q: Provide HCT-15 colon TGI reading for "Cc1cc(NCCCCCCCCCC[n+]2c(C)cc(N)c3ccccc32)c2ccccc2n1" .
a: 18.4 µM

q: Provide HCT-15 colon TGI reading for COC(=O)C(C)N(C)C(=O)[C@H](CC(N)=O)N(C)C(=O)[C@@H]1CCCN1C(=O)[C@H](C(C)C)N(C)C(=O)C(C(C)C)N(C)C(=O)[C@@H](NC(=O)OC(C)(C)C)C(C)C (stereo partly drawn) (Boc-V[ξNMeV][NMeV]P[NMeN][ξNMeA]-OMe) .
a: > 100 µM

q: Provide HCT-15 colon TGI reading for CC12CCC(C(=O)N3CC=CCC3)(OC1=O)C2(C)C (stereo not drawn) .
a: > 100 µM
